molecular target: UniProt Q92831; assay: PCAF DiscoverX BROMOscan
Sequence (Q92831 whole entry): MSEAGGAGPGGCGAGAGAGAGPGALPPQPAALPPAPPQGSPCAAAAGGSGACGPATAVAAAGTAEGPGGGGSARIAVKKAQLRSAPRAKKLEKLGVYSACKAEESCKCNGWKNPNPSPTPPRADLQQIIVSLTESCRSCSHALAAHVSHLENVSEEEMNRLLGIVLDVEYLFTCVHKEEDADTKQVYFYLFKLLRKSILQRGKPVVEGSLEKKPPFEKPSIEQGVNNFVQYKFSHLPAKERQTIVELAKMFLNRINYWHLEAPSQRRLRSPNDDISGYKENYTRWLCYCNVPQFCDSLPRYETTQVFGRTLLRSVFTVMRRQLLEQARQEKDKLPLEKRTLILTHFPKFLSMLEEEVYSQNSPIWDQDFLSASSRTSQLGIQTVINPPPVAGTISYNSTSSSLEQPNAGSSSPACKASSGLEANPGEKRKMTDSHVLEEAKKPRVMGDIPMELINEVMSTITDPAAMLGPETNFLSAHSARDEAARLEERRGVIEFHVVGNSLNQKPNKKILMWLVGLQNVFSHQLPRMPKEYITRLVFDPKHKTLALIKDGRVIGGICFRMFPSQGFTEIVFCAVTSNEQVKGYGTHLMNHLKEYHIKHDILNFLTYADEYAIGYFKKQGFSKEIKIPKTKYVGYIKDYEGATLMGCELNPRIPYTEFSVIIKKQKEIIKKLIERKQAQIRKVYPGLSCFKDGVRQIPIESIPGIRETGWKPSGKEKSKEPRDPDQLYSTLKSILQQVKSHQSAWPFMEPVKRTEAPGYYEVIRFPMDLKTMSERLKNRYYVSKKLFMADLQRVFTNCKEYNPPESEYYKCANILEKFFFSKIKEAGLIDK
pKd: −log10 of the molar value.

STRUCTURE_AS_SMILES	pKd
COCc1nc2cnc3cc(-c4c(C)noc4C)c(OC[C@H]4CCNC4)cc3c2n1[C@H](C)c1ccccc1	4.48

----------
Biological target: 5-hydroxytryptamine receptor 2C (Homo sapiens)
Sequence (P28335 whole entry): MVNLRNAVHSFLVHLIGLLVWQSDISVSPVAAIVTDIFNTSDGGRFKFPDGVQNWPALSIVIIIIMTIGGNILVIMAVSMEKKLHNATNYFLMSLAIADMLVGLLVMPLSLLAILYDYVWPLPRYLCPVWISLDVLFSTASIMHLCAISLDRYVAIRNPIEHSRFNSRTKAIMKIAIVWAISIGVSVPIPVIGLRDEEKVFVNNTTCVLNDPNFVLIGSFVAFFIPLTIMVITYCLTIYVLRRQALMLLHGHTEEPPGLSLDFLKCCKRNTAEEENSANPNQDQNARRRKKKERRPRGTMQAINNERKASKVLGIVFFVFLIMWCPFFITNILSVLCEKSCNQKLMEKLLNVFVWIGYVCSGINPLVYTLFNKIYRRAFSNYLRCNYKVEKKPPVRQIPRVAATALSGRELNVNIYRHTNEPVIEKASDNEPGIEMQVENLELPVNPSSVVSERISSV
METRIC_NAME: IC50

STRUCTURE_AS_SMILES	RESULT
COCc1nc2cnc3cc(-c4c(C)noc4C)c(OC[C@H]4CCNC4)cc3c2n1[C@H](C)c1ccccc1	> 25.1 µM

----------
Protein target, amino acids: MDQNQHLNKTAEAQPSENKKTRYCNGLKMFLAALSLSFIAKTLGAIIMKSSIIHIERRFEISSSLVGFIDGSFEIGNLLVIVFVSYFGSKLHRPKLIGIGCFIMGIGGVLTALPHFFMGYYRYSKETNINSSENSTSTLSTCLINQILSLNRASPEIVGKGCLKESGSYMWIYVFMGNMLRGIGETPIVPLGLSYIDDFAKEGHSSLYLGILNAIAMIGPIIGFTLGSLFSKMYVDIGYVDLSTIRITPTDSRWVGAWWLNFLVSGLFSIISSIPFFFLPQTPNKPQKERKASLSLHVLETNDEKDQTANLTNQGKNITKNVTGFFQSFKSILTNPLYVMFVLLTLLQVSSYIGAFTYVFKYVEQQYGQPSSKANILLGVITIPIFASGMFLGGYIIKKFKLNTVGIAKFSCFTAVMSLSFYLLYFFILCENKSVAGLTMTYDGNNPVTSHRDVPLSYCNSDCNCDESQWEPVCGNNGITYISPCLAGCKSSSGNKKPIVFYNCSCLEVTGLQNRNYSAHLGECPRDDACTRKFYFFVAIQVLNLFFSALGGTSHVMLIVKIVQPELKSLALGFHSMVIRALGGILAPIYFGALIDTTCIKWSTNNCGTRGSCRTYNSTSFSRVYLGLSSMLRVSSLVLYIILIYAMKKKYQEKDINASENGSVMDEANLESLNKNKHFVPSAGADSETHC
METRIC_NAME: IC50 (µM)

COMPOUND	OUTPUT_UNIT	NUMERIC_VALUE
COCc1nc2cnc3cc(-c4c(C)noc4C)c(OC[C@H]4CCNC4)cc3c2n1[C@H](C)c1ccccc1 [GSK778]	µM	39.8

----------
biological target: UniProt:P23975
Sequence (P23975 whole entry): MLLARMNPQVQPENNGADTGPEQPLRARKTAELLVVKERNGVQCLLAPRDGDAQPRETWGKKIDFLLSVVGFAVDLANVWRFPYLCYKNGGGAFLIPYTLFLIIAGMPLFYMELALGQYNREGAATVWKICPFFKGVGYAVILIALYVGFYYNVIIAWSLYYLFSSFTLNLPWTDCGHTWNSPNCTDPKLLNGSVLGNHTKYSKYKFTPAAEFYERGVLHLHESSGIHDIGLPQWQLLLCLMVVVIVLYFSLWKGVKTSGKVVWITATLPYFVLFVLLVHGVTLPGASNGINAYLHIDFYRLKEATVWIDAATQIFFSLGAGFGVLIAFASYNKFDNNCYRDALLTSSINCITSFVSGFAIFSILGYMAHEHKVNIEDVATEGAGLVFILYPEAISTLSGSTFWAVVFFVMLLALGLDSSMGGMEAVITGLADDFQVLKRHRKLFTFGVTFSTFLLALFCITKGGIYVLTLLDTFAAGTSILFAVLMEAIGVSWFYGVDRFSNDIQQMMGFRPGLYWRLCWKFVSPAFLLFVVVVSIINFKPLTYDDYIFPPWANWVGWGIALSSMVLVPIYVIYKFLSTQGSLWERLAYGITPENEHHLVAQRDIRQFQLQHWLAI

STRUCTURE_AS_SMILES	IC50 [µM]
COCc1nc2cnc3cc(-c4c(C)noc4C)c(OC[C@H]4CCNC4)cc3c2n1[C@H](C)c1ccccc1	20
